- System: HT-29
- EXPERIMENTAL_DETAILS: NCI tumour cell line growth inhibition, 48 h
Active and inactive are the calls of the source. Rule as the data show it: active = GI50 up to about 1.1 µM and inactive = higher.
READOUT_TYPE: GI50

// known answers, use as guide
| COMPOUND | GI50 |
| --- | --- |
| CSc1nnc(SCc2nn3c(=O)cc(C)nc3s2)s1 | > 100 µM (inactive) |
| COc1ccc(/C=C\c2cc(OC)c(OC)c(OC)c2)cc1OCC(=O)O | > 100 µM (inactive) |
| CCOC(=O)/C=C/CCC(C)(C)COC(C)=O | > 10 µM (inactive) |
| O=c1cc(O)ccn1C1C=C(CO)C(O)C1O (centres undefined) | > 625 µM (inactive) |
| COc1ccc(/C=C2\C[C@H]3[C@@H]4CCC5=C[C@@H](N6CCCC6)CC[C@]5(C)[C@H]4CC[C@]3(C)[C@H]2O)cc1 | 0.728 µM (active) |
| CC(C)CCC[C@@H](C)[C@H]1CC[C@H]2[C@@H]3CC[C@H]4C[C@H](N)CC[C@]4(C)[C@H]3CC[C@]12C | 18.3 µM (inactive) |
| COC(=O)/C=C/c1cc(OC)c2oc(-c3ccc(OC)c(OC)c3)c(C(=O)OC)c2c1 | > 100 µM (inactive) |
| O=C1Cc2c([nH]c3ccc(Br)cc23)-c2ccccc2N1 [KENPAULLONE] | 5.19 µM (inactive) |

Turning now to a further compound:
In plain terms, `O=[N+]([O-])c1cc(Cl)ccc1Sc1ccccc1` has a documented GI50 of 46.8 µM (inactive)

* * *

Items are presented alongside their recorded GI50.
- Tested on: NCI-H522
- EXPERIMENTAL_DETAILS: NCI tumour cell line growth inhibition, 48 h
Calls of active or inactive are those of the source. Rule as the data show it: active = GI50 up to about 1.1 µM and inactive = higher.

| COMPOUND | GI50 |
| --- | --- |
| CC1(C)CC(=O)C(CC2C(=O)CCCC2=O)C(=O)C1 | > 100 µM (inactive) |

Form field GI50, entry CC1(O)CCn2c(=O)c3cc4ccccc4cc3c(=O)n2C1O (configuration not stated) : 22 µM (inactive)

GET /value?item= `CC1=NN(c2nc(N)nc(NS(=O)(=O)c3cc(C)c(Cl)cc3S)n2)C(C)(C)C1` &field=GI50 returns > 10 µM (inactive)

Measured GI50, Cc1nc(C(N)=O)c(N)n1CCN1CCN(C(=O)CCCCCCCCCCNC2NC=Nc3[nH]cnc32)CC1 (configuration not stated) : > 10 µM (inactive)

Reported GI50 for `NN=C1/C(=C\c2ccccc2)CCC/C1=C/c1ccccc1` was 15.4 µM (inactive)

# GI50 of `O=C(Nc1nc2ccc([N+](=O)[O-])cc2[n+]([O-])n1)C(F)(F)F` = 21 µM (inactive)

* * *

- System: A549
- EXPERIMENTAL_DETAILS: NCI tumour cell line growth inhibition, 48 h
Active and inactive are the calls of the source. Rule as the data show it: active = GI50 up to about 1.1 µM and inactive = higher.
Mark one answer only. Choices: label 1 for active, label 0 for inactive

| COMPOUND | ASSIGNED_CATEGORY |
| --- | --- |
| CNS(=O)(=O)NNS(=O)(=O)c1ccc2ccccc2c1 | label 0 |
| Clc1cccc(C2ON=C(c3ccccc3)N2C23CC4CC(CC(C4)C2)C3)c1Cl (stereo not drawn) | label 0 |
| CCOC(=O)c1nnn(CCCCO)c1C(=O)OCC | label 0 |
| O=C1Nc2ccccc2/C1=C/c1ccccc1 | label 0 |
| O=C(Nc1ccc(Nc2ccc3c(c2)C(=O)c2ccccc2C3=O)c2c1C(=O)c1ccccc1C2=O)c1ccccc1 | label 0 |
| COc1nc(N)c(C#N)c(C#N)c1C#N | label 0 |

Exercise: Hey, what did the test say about `c1ccc(-c2nnc3nn4c(-c5ccccc5)cnnc4c3c2-c2ccccc2)cc1` ?
Key: label 0
